Conc (nM) of Max. activity overview
Tested on: primary human mesenchymal stem cells (hMSCs)
Assay: Chondrogenesis induction screen in primary human mesenchymal stem cells
Type: cell-based
Details: 6 days, chondrogenic nodules, dose range 10-2700 nM
Description: The above synthesized compounds were screened using primary human mesenchymal stem cells (hMSCs) to determine their ability to induce chondrogenesis (process by which cartilage is developed). […] Each compound was dissolved in DMSO as a 10 mM stock and used to prepare compound source plates. […] The nodules imaged (4 images per well at 4× magnification) by excitation at 531 nm and emission at 625 nm and quantified using the CellInsight CX5 (Thermo Scientific). […]
Give just the numeric value; nM need not be written.

Solved cases (2 shown):
CC(C)Nc1cncc(-c2ccc3[nH]nc(-c4nc5c(-c6ccoc6)ccnc5[nH]4)c3c2)c1 [Compound 298] | 30
CC(C)CC(=O)Nc1cncc(-c2ccc3[nH]nc(-c4nc5c(-c6cccc(F)c6)ccnc5[nH]4)c3c2)c1 [Compound 2] | 30

# input What value of measured Conc (nM) of Max. activity is listed for CCCC(=O)Nc1cncc(-c2ccc3[nH]nc(-c4nc5c(-c6cc(F)cc(CNS(C)(=O)=O)c6)ccnc5[nH]4)c3c2)c1 [Compound 433] ?
# output 2700

====

system: primary human fibroblasts derived from IPF patients (LL29 cells); assay: Inhibition of fibrosis (αSMA) in TGF-β1 treated primary human fibroblasts from IPF patients; format: cell-based; conditions: Fibroblast, 96 h, TGF-β1 20 ng/mL, 4 days, % αSMA positive cells
Catalogue of compounds with associated pEC50
Scale note: pEC50 = -log10(concentration in M).

As a guide, the following entries are already answered.
CC(C)C(=O)Nc1cncc(-c2ccc3[nH]nc(-c4nc5c(-c6ccccc6F)ccnc5[nH]4)c3c2)c1 | 11.05
c1ccc(-c2ccnc3[nH]c(-c4n[nH]c5ccc(-c6cncc(CNCC7CCCC7)c6)cc45)nc23)nc1 | 8.00

# input What does the data say about its pEC50? Entry: Cc1ncc(-c2ccc3[nH]nc(-c4nc5c(-c6cccc(F)c6)ccnc5[nH]4)c3c2)n1C
# output 8.00

# input # lookup: pEC50 of CCCCC(=O)Nc1cncc(-c2ccc3[nH]nc(-c4nc5c(-c6ccccn6)ccnc5[nH]4)c3c2)c1
# output 10.07
